- Target Entity: wild type human RORγt ligand binding domain (RORyt LBD) (Homo sapiens, UniProt P51449)
- Construct: His-tag (N); TurboTEV protease cleavage site (ENLYFQG) (N)
- Sequence (P51449 258-518): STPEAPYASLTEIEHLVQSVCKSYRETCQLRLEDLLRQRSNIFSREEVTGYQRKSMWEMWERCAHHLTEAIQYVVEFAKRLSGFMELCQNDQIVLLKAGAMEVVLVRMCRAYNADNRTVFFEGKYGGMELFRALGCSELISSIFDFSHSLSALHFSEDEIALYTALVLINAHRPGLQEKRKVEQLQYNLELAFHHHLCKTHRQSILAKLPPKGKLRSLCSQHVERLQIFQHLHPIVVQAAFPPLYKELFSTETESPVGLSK
- Protocol Notes: RORγt ThermoFluor assay (thermal shift, binding affinity KD)
Property Measured: Kd

[[record]]
compound = "COc1nc2ccc(C(O)(c3c(C)noc3C)c3cnnn3C)cc2c(Cl)c1Cc1ccc(C(F)(F)F)cc1 (stereo not drawn)"
observed_measurement = "600 pM"

[[record]]
compound = "COc1nc2ccc(C(O)(c3ccc(C)nc3C)C3CN(C(C)=O)C3)cc2c(Cl)c1Cc1ccc(C(F)(F)F)cc1 (racemic) [Example 87a]"
observed_measurement = "1800 pM"

[[record]]
compound = "COc1nc2ccc(C(O)(c3cnnn3C)c3cnnn3C)cc2c(Cl)c1Cc1ccc(C(F)(F)F)cc1"
observed_measurement = "700 pM"


----------
Reported pIC50 by item:
- Target Entity: wild type human RORγt LBD (Homo sapiens, UniProt P51449)
- Construct: expressed in transfected cells; host or cells: HEK293T
- Sequence (P51449 258-518): as above
- Protocol Notes: RORγt (LBD) Reporter Assay (GAL4-luciferase, HEK293T cells)
- Assay type: cell-based
- Measurement Context: HEK293T cells
pIC50: −log10 of the molar value.
Property Measured: pIC50

[[record]]
molecule = "COc1nc2ccc(C(O)(c3ccc(C)nc3C)c3cnnn3C)cc2c(Cl)c1Cc1ccc(S(C)(=O)=O)cc1 (single isomer, unassigned) [Example 117b]"
observed_measurement = "~5.40"

[[record]]
molecule = "Cn1cncc1C(O)(c1ccc(C(F)(F)F)nc1)c1ccc2nc(-c3nccn3C)c(Cc3ccccc3)c(Cl)c2c1 (single isomer, unassigned) [Example 113b]"
observed_measurement = "~5.22"

[[record]]
molecule = "Cn1cncc1C(O)(c1ccc(C(F)(F)F)nc1)c1ccc2nc(-c3nccn3C)c(Cc3ccccc3)c(C#N)c2c1 (stereo not drawn)"
observed_measurement = "< 5.22"


----------
Reported Kd by item:
- Target Entity: wild type human RORγt ligand binding domain (RORyt LBD) (Homo sapiens, UniProt P51449)
- Construct: His-tag (N); TurboTEV protease cleavage site (ENLYFQG) (N)
- Protocol Notes: RORγt ThermoFluor assay (thermal shift, binding affinity KD)
Property Measured: Kd (nM)

[[record]]
molecule = "COc1nc2ccc(C(N)(c3ccc(C(F)(F)F)nc3)c3cncn3C)cc2c(Cl)c1Cc1cc2ccccc2s1 (racemic) [Example 71a]"
observed_measurement = 61

[[record]]
molecule = "CC(=O)N1CCC(C(O)(c2ccc(C(F)(F)F)nc2)c2cc(C)c3nc(C#N)c(Cc4ccc(-n5cccn5)cc4)c(C#N)c3c2)CC1 (single isomer, unassigned) [Example 79b]"
observed_measurement = 580

[[record]]
molecule = "CN(C)c1nc2ccc(C(O)(c3ccc(C(F)(F)F)nc3)c3cncn3C)cc2c(Cl)c1Cc1ccc(-n2cccn2)cc1 (stereo not shown)"
observed_measurement = 36

[[record]]
molecule = "COc1nc2ccc(C(O)(c3ccccc3)C3CCN(C(C)=O)CC3)cc2c(Cl)c1Cc1ccc(-n2cncn2)cc1 (single isomer, unassigned) [Example 18b]"
observed_measurement = 8


----------
- Target Entity: wild type human RORγt ligand binding domain (RORyt LBD) (Homo sapiens)
- Construct: His-tag (N); TurboTEV protease cleavage site (ENLYFQG) (N)
- Protocol Notes: RORγt ThermoFluor assay (thermal shift, binding affinity KD)
Property Measured: Kd (nM)

[[record]]
molecule = "COc1nc2ccc(C(O)(c3ccc(C)nc3C)c3cnnn3C)cc2c(Cl)c1Cc1ccc(N(C)C)cc1 (single isomer, unassigned) [Example 24c]"
property_measured = "Kd"
observed_measurement = 0.32

[[record]]
molecule = "COc1nc2ccc(C(O)(c3sc(C)nc3C)c3cnnn3C)cc2cc1Cc1ccc(C(F)(F)F)cc1 (racemic) [Example 92a]"
property_measured = "Kd"
observed_measurement = 92

[[record]]
molecule = "Cn1cncc1C(O)(c1ccc(C(F)(F)F)nc1)c1ccc2nc(C(F)(F)F)c(Cc3ccccc3)c(C#N)c2c1 (single isomer, unassigned) [Example 108b]"
property_measured = "Kd"
observed_measurement = 1.2

[[record]]
molecule = "COc1nc2ccc(C(O)(c3cnnn3C)c3cnc(C)n3C)cc2c(C#N)c1Cc1ccc(C(F)(F)F)nc1 (single isomer, unassigned) [Example 44c]"
property_measured = "Kd"
observed_measurement = 9

[[record]]
molecule = "COc1nc2ccc(C(O)(c3ccc(C)nc3C)c3cnnn3C)cc2c(C#N)c1Cc1ccc(C(F)(F)F)nc1 (single isomer, unassigned) [Example 41c]"
property_measured = "Kd"
observed_measurement = 6.4

[[record]]
molecule = "COc1nc2ccc(C(O)(c3cnnn3C)C3CN(C)C3)cc2c(Cl)c1Cc1ccc(C(F)(F)F)cc1 (single isomer, unassigned) [Example 90c]"
property_measured = "Kd"
observed_measurement = 3.4

[[record]]
molecule = "COc1nc2ccc(C(O)(c3cnc(C)n3C)C3CCOCC3)cc2c(Cl)c1Cc1ccc(C(F)(F)F)cc1 (single isomer, unassigned) [Example 86b]"
property_measured = "Kd"
observed_measurement = 27

[[record]]
molecule = "COc1nc2ccc(C(O)(c3ccc(C)nc3C)c3cnc(C)n3C)cc2c(Cl)c1Cc1ccc(C(F)(F)F)nc1 (centres unmarked) [Example 42a]"
property_measured = "Kd"
observed_measurement = 0.38

[[record]]
molecule = "Cc1nc2ccc(C(O)(c3cnnn3C)c3cnc(C)n3C)cc2c(Cl)c1Cc1ccc(C(F)(F)F)cc1 (single isomer, unassigned) [Example 29c]"
property_measured = "Kd"
observed_measurement = 0.15

[[record]]
molecule = "CC(=O)N1CCC(C(O)(c2ccccc2)c2ccc3nc(Cl)c(Cc4cncnc4)c(OC(F)F)c3c2)CC1 (single isomer, unassigned) [Example 73c]"
property_measured = "Kd"
observed_measurement = 480

[[record]]
molecule = "Cn1cncc1C(O)(c1ccc2nc(C(F)(F)F)c(Cc3ccccc3)c(C#N)c2c1)c1ccccn1 (single isomer, unassigned) [Example 99b]"
property_measured = "Kd"
observed_measurement = 810

[[record]]
molecule = "Cc1cc(C(O)(c2ccc(Cl)cc2)c2cncn2C)cc2c(Cl)c(Cc3ccc(-n4cccn4)cc3)c(N3CCC3)nc12 (single isomer, unassigned) [Example 136b]"
property_measured = "Kd"
observed_measurement = 2300

[[record]]
molecule = "COc1nc2ccc(C(O)(c3ccc(C(F)(F)F)nc3)c3cnnn3C)cc2c(Cl)c1Cc1ccc(C(F)(F)F)cc1 (single isomer, unassigned) [Example 75b]"
property_measured = "Kd"
observed_measurement = 6.8

[[record]]
molecule = "Cc1nc2ccc(C(O)(c3ccnc(C(F)(F)F)c3)c3cncn3C)cc2c(Cl)c1Cc1ccc(C(F)(F)F)cc1 (centres unmarked) [Example 30a]"
property_measured = "Kd"
observed_measurement = 0.28


----------
- Target Entity: wild type human RORγt LBD (Homo sapiens, UniProt P51449)
- Construct: expressed in transfected cells; host or cells: HEK293T
- Protocol Notes: RORγt (LBD) Reporter Assay (GAL4-luciferase, HEK293T cells)
- Assay type: cell-based
- Measurement Context: HEK-293T, read-out: RORγt (LBD) Reporter Assay, % inhibition @ 6 µM, 6 µM compound concentration; HEK293T cells
Property Measured: inhibition at 6 µM (%)

[[record]]
molecule = "CC(=O)N1CCC(C(O)(c2ccc3nc(C(F)(F)F)c(Cc4ccccc4)c(Cl)c3c2)c2cncn2C)CC1 (single isomer, unassigned) [Example 115b]"
readout_units = "%"
observed_measurement = 67

[[record]]
molecule = "COCCN(C)c1nc2ccc(C(O)(c3ccc(Cl)cc3)c3cncn3C)cc2c(Cl)c1Cc1ccc(-n2cccn2)cc1 (centres unmarked) [Example 127]"
readout_units = "%"
observed_measurement = 101

[[record]]
molecule = "Cn1cncc1C(O)(c1ccc(C(F)(F)F)nc1)c1ccc2nc(N3CC(F)C3)c(Cc3ccc(-n4cccn4)cc3)c(Cl)c2c1 (single isomer, unassigned) [Example 147b]"
readout_units = "%"
observed_measurement = 99

[[record]]
molecule = "Cn1cncc1C(O)(c1ccc(C(F)(F)F)nc1)c1ccc2nc(N3CC(F)(F)C3)c(Cc3ccc(-n4cccn4)cc3)c(Cl)c2c1 (single isomer, unassigned) [Example 135b]"
readout_units = "%"
observed_measurement = 99

[[record]]
molecule = "COc1ccc(C(O)(c2cccnc2)c2ccc3nc(OC)c(Cc4ccc(-n5cccn5)cc4)c(Cl)c3c2)cc1OC (centres unmarked) [Example 159a]"
readout_units = "%"
observed_measurement = 107

[[record]]
molecule = "Cn1cncc1C(O)(c1ccc2nc(C(F)(F)F)c(Cc3ccccc3)c(O)c2c1)c1ccccn1 (centres unmarked) [Example 152]"
readout_units = "%"
observed_measurement = 70

[[record]]
molecule = "Cn1cncc1C(O)(c1ccc(Cl)cc1)c1ccc2nc(Cl)c(Cc3ccc(C(F)(F)F)cc3)c(Cl)c2c1 (centres unmarked) [Example 155]"
readout_units = "%"
observed_measurement = 88

[[record]]
molecule = "COc1nc2ccc(C(O)(c3cccnc3)c3ccc(Cl)c(Cl)c3)cc2c(Cl)c1Cc1ccc(-n2cccn2)cc1 (single isomer, unassigned) [Example 161b]"
readout_units = "%"
observed_measurement = 108

[[record]]
molecule = "Cn1cncc1C(O)(c1ccc(C(F)(F)F)nc1)c1ccc2nc(N3CCOCC3)c(Cc3ccc(-n4cccn4)cc3)c(Cl)c2c1 (single isomer, unassigned) [Example 146b]"
readout_units = "%"
observed_measurement = 103

[[record]]
molecule = "COc1nc2ccc(C(O)(c3ccc(F)cc3)C3CCN(C(C)=O)CC3)cc2c(Cl)c1Cc1ccc(-n2cccn2)cc1 (centres unmarked) [Example 157a]"
readout_units = "%"
observed_measurement = 93

[[record]]
molecule = "COc1nc2ccc(C(O)(c3ccc(F)cc3)c3cncn3C)cc2c(Cl)c1Cc1ccc(-n2cccn2)cc1 (single isomer, unassigned) [Example 160b]"
readout_units = "%"
observed_measurement = 105

[[record]]
molecule = "Cc1ccc(C(O)(c2ccc3nc(Cl)c(Cc4ccc(C(F)(F)F)cc4)c(Cl)c3c2)c2cnnn2C)c(C)n1 (centres unmarked) [Example 139]"
readout_units = "%"
observed_measurement = 98

[[record]]
molecule = "COc1nc2ccc(C(O)(c3cnnn3C)C3CNC3)cc2c(Cl)c1Cc1ccc(C(F)(F)F)cc1 (centres unmarked) [Example 124]"
readout_units = "%"
observed_measurement = 93

[[record]]
molecule = "Cc1ccc(C(O)(c2ccc3nc(N4CCC4)c(Cc4ccc(C(F)(F)F)cc4)c(Cl)c3c2)c2cnnn2C)c(C)n1 (single isomer, unassigned) [Example 140b]"
readout_units = "%"
observed_measurement = 101

